Tested on: SRPK2;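 note: KINOMEscan kinase panel screen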
Conditions: concentration: 1 μM,replicates: in singlicate; n = 1
measuredAttribute: %Inh (%)
Reply with just the number (in %).

compound | recordedMeasurement
CSc1nccc(-c2c(-c3ccc(F)cc3)ncn2CCCN2CCOCC2)n1.Cl [SB-217146] | 0
Cn1ccc2ncnc(Oc3ccc(NC(=O)Nc4cnn(C(C)(C)C)c4)c(Cl)c3)c21 | 11
CCCC(=O)Nc1n[nH]c2ncccc12 [SB-601436] | 0

Fill blank: measured %Inh of the compound Cc1ccn2nc(-c3ccc(F)cc3)c(-c3ccncc3)c2c1.Cl [GW457859] is ____.
68

Repeat with Cc1nnc(-c2ccc3occ(-c4ccc(S(C)=O)cc4)c3n2)o1 (stereo not drawn)
0

Repeat with "C[C@@H]1CNc2c(sc3ccc4nc(-c5ccncc5)ccc4c23)C(=O)N1"
0

Repeat with Cl.Nc1n[nH]c2cc(-c3ccccn3)ccc12 [GSK2189892]
0

Repeat with "Cn1ccc2ncnc(Oc3ccc(NC(=O)Nc4cccc(C(F)(F)F)c4)c(Cl)c3)c21"
0

Repeat with CS(=O)c1ccc(-c2coc3ccc(-c4n[nH]c(=O)o4)cc23)cc1 (stereo not drawn)
1
